Ref: ChEMBL document CHEMBL4118132

I'd be grateful if you could share measured MBC for these entries.
Test system: Staphylococcus aureus
METHOD: Bactericidal activity against penicillin-susceptible Staphylococcus aureus ATCC 25923 after 24 hrs by flat colony counting method
Assay type: functional
CONDITION INFO: ATCC 25923, 24 h

Value of measured MBC for the entry Cc1cc(-c2ccc(C(F)(F)F)cc2)cc2c3ccccc3c[n+](C)c12.[Cl-] : 16 µg/mL

Consider COc1cc(-c2cccc(C(F)(F)F)c2)cc2c3ccccc3c[n+](C)c12.[Cl-] . Its measured MBC is 32 µg/mL

Kindly note the recorded MBC for C[n+]1cc2ccccc2c2cc(-c3cccc(C(F)(F)F)c3)ccc21.[Cl-] , which is > 64 µg/mL

For reference, reported MBC for C[n+]1cc2ccccc2c2cc(-c3ccc(C(F)(F)F)cc3)ccc21.[Cl-] stands at > 64 µg/mL

Item: Cc1cc(-c2ccc(-c3ccccc3)cc2)cc2c3ccccc3c[n+](C)c12.[Cl-] | MBC: 64 µg/mL

Kindly note the recorded MBC for COc1cc(-c2ccccc2)cc2c3ccccc3c[n+](C)c12.[Cl-] , which is > 64 µg/mL

Sure, the documented MBC for C[n+]1cc2ccccc2c2cc(-c3ccc(-c4ccccc4)cc3)ccc21.[Cl-] is > 64 µg/mL

So for COc1cc(-c2ccc(OC(F)(F)F)cc2)cc2c3ccccc3c[n+](C)c12.[Cl-] , the logged MBC turned out to be 32 µg/mL

Record COc1ccc(-c2cc(OC)c3c(c2)c2ccccc2c[n+]3C)cc1.[Cl-] . Reported MBC: > 64 µg/mL

Sure, the documented MBC for Cc1cc(-c2ccccc2C(F)(F)F)cc2c3ccccc3c[n+](C)c12.[Cl-] is 32 µg/mL

MBC measured on COc1cc(-c2ccccc2C(F)(F)F)cc2c3ccccc3c[n+](C)c12.[Cl-] = > 64 µg/mL

get_value(item= COc1ccc(-c2cc(C)c3c(c2)c2ccccc2c[n+]3C)cc1.[Cl-] , readout=MBC) returns > 64 µg/mL

Query C[n+]1cc2ccccc2c2cc(-c3ccc(OC(F)(F)F)cc3)ccc21.[Cl-] yields MBC of 64 µg/mL

The value of MBC measured for the compound COc1cc(-c2ccc(C)cc2)cc2c3ccccc3c[n+](C)c12.[Cl-] turned out to be 64 µg/mL

Entry under test: C[n+]1cc2ccccc2c2cc(-c3ccccc3C(F)(F)F)ccc21.[Cl-] . Its MBC was > 64 µg/mL

Given item Cc1ccc(-c2ccc3c(c2)c2ccccc2c[n+]3C)cc1.[Cl-] , the value recorded as its MBC is > 64 µg/mL

Measured MBC of Cc1cc(-c2ccccc2)cc2c3ccccc3c[n+](C)c12.[Cl-] : 32 µg/mL

Lab note: measured MBC of Cc1ccc(-c2cc(C)c3c(c2)c2ccccc2c[n+]3C)cc1.[Cl-] was 32 µg/mL

Just so you know, measured MBC for C[n+]1cc2ccccc2c2cc(-c3ccccc3)ccc21.[Cl-] came out at > 64 µg/mL

Entry under test: Cc1cc(-c2cccc(C(F)(F)F)c2)cc2c3ccccc3c[n+](C)c12.[Cl-] . Its MBC was 16 µg/mL

The compound identified as COc1cc(-c2ccc(C(F)(F)F)cc2)cc2c3ccccc3c[n+](C)c12.[Cl-] registered its MBC at 32 µg/mL

Recorded result, Cc1cc(-c2ccc(OC(F)(F)F)cc2)cc2c3ccccc3c[n+](C)c12.[Cl-] , MBC: 16 µg/mL

Per the record, COc1ccc(-c2ccc3c(c2)c2ccccc2c[n+]3C)cc1.[Cl-] has MBC of > 64 µg/mL

Record summary for COc1cc(-c2ccc(-c3ccccc3)cc2)cc2c3ccccc3c[n+](C)c12.[Cl-] : reported MBC = 16 µg/mL

----------
System: Escherichia coli
METHOD: Antibacterial activity against penicillin-susceptible Escherichia coli ATCC 25922 after 24 hrs by broth microdilution method
Assay type: functional
CONDITION INFO: ATCC 25922, 24 h
REPORTED METRIC: MIC

The molecule listed as Cc1cc(-c2cccc(C(F)(F)F)c2)cc2c3ccccc3c[n+](C)c12.[Cl-] has a reported MIC of > 64 µg/mL

Reported MIC for COc1cc(-c2ccc(OC(F)(F)F)cc2)cc2c3ccccc3c[n+](C)c12.[Cl-] was > 64 µg/mL

C[n+]1cc2ccccc2c2cc(-c3ccccc3C(F)(F)F)ccc21.[Cl-] yielded MIC of > 64 µg/mL

Reported MIC ( Cc1onc(-c2ccccc2)c1C(=O)N[C@@H]1C(=O)N2[C@@H]1SC(C)(C)[C@@H]2C(=O)[O-].[Na+] ) = > 64 µg/mL

The recorded MIC for COc1cc(/C=C/C(=O)CC(=O)/C=C/c2ccc(O)c(OC)c2)ccc1O is > 64 µg/mL

Note to self: MIC recorded for Cc1cc(-c2ccc(-c3ccccc3)cc2)cc2c3ccccc3c[n+](C)c12.[Cl-] was > 64 µg/mL

Input C[n+]1cc2ccccc2c2cc(-c3cccc(C(F)(F)F)c3)ccc21.[Cl-] . Output MIC: > 64 µg/mL

Memo: COc1cc(-c2ccc(C(F)(F)F)cc2)cc2c3ccccc3c[n+](C)c12.[Cl-] , reported MIC: > 64 µg/mL

The molecule listed as COc1cc(-c2ccccc2C(F)(F)F)cc2c3ccccc3c[n+](C)c12.[Cl-] has a reported MIC of > 64 µg/mL

Entry COc1cc(-c2ccccc2)cc2c3ccccc3c[n+](C)c12.[Cl-] , MIC reported as > 64 µg/mL

Sample COc1ccc(-c2cc(OC)c3c(c2)c2ccccc2c[n+]3C)cc1.[Cl-] ; MIC observed: > 64 µg/mL

According to the records, this molecule C[n+]1cc2ccccc2c2cc(-c3ccc(-c4ccccc4)cc3)ccc21.[Cl-] displays MIC of > 64 µg/mL

MIC reported for this molecule Cc1cc(-c2ccccc2)cc2c3ccccc3c[n+](C)c12.[Cl-] : > 64 µg/mL

Field MIC (entry Cc1cc(-c2ccc(C(F)(F)F)cc2)cc2c3ccccc3c[n+](C)c12.[Cl-] ) reads > 64 µg/mL

The reported value for COc1ccc(-c2cc(C)c3c(c2)c2ccccc2c[n+]3C)cc1.[Cl-] in terms of MIC is > 64 µg/mL

GET /value?item= Cc1ccc(-c2cc(C)c3c(c2)c2ccccc2c[n+]3C)cc1.[Cl-] &field=MIC returns > 64 µg/mL

Form: molecule = C[n+]1cc2ccccc2c2cc(-c3ccccc3)ccc21.[Cl-] ; MIC = > 64 µg/mL

What the record says about COc1cc(-c2ccc(C)cc2)cc2c3ccccc3c[n+](C)c12.[Cl-] : MIC is > 64 µg/mL

Sure, the documented MIC for Cc1cc(-c2ccc(OC(F)(F)F)cc2)cc2c3ccccc3c[n+](C)c12.[Cl-] is > 64 µg/mL

Reported MIC ( C[n+]1cc2ccccc2c2cc(-c3ccc(C(F)(F)F)cc3)ccc21.[Cl-] ) = > 64 µg/mL

----------
Tested on: Staphylococcus aureus
METHOD: Antibacterial activity against penicillin-susceptible Staphylococcus aureus ATCC 25923 after 24 hrs by broth microdilution method
Assay type: functional
CONDITION INFO: ATCC 25923, 24 h
REPORTED METRIC: MIC
Include the unit after the number when you answer.

MIC in this record for Cc1onc(-c2ccccc2)c1C(=O)N[C@@H]1C(=O)N2[C@@H]1SC(C)(C)[C@@H]2C(=O)[O-].[Na+] : 4 µg/mL

Value of MIC reported for the compound C[n+]1cc2c3c(ccc2c2ccc4cc5c(cc4c21)OCO5)OCO3.[Cl-] [SANGUINARIUM CHLORIDE] is 8 µg/mL

The value of MIC measured for the compound COc1cc(-c2ccc(C(F)(F)F)cc2)cc2c3ccccc3c[n+](C)c12.[Cl-] turned out to be 2 µg/mL

C[n+]1cc2ccccc2c2cc(-c3ccccc3)ccc21.[Cl-] has a reported MIC of 32 µg/mL

# MIC of Cc1cc(-c2cccc(C(F)(F)F)c2)cc2c3ccccc3c[n+](C)c12.[Cl-] = 0.25 µg/mL

Notebook: C[n+]1cc2ccccc2c2cc(-c3ccc(OC(F)(F)F)cc3)ccc21.[Cl-] , MIC read as 4 µg/mL

Measured MIC of COc1cc(-c2cccc(C(F)(F)F)c2)cc2c3ccccc3c[n+](C)c12.[Cl-] : 2 µg/mL

MIC for COc1cc(-c2ccccc2)cc2c3ccccc3c[n+](C)c12.[Cl-] is 16 µg/mL

The recorded MIC for entry C[n+]1cc2ccccc2c2cc(-c3cccc(C(F)(F)F)c3)ccc21.[Cl-] equals 8 µg/mL

----------
System: Bacillus pumilus
METHOD: Antibacterial activity against penicillin-susceptible Bacillus pumilus ATCC 63202 after 24 hrs by broth microdilution method
Format: functional
CONDITION INFO: ATCC 63202, 24 h
REPORTED METRIC: MIC (µg/mL)
Use µg/mL as the unit, but write only the number.

Lab note: molecule COc1cc(-c2ccc(C)cc2)cc2c3ccccc3c[n+](C)c12.[Cl-] tested on Bacillus pumilus; recorded MIC was 2

Sample Cc1cc(-c2ccc(-c3ccccc3)cc2)cc2c3ccccc3c[n+](C)c12.[Cl-] , system: Bacillus pumilus. Its MIC is 0.125

Log: Bacillus pumilus, molecule COc1cc(/C=C/C(=O)CC(=O)/C=C/c2ccc(O)c(OC)c2)ccc1O , MIC = 32

Field MIC (Bacillus pumilus), entry C[n+]1cc2c3c(ccc2c2ccc4cc5c(cc4c21)OCO5)OCO3.[Cl-] [SANGUINARIUM CHLORIDE] : 4

So the reported MIC for Cc1cc(-c2ccc(OC(F)(F)F)cc2)cc2c3ccccc3c[n+](C)c12.[Cl-] , on Bacillus pumilus, turned out to be 0.125

# lookup: COc1cc(-c2ccccc2C(F)(F)F)cc2c3ccccc3c[n+](C)c12.[Cl-] on Bacillus pumilus, MIC = 16

Reported MIC (Bacillus pumilus) for entry C[n+]1cc2ccccc2c2cc(-c3cccc(C(F)(F)F)c3)ccc21.[Cl-] is 16

// molecule Cc1cc(-c2cccc(C(F)(F)F)c2)cc2c3ccccc3c[n+](C)c12.[Cl-] , assay Bacillus pumilus, MIC value: 0.5

The molecule Cc1ccc(-c2ccc3c(c2)c2ccccc2c[n+]3C)cc1.[Cl-] , when measured on Bacillus pumilus, yielded MIC of 8

Entry COc1ccc(-c2cc(OC)c3c(c2)c2ccccc2c[n+]3C)cc1.[Cl-] , tested on Bacillus pumilus, has a reported MIC of 8

Bacillus pumilus MIC of Cc1onc(-c2ccccc2)c1C(=O)N[C@@H]1C(=O)N2[C@@H]1SC(C)(C)[C@@H]2C(=O)[O-].[Na+] is 32

Form field MIC for item COc1cc(-c2ccc(C(F)(F)F)cc2)cc2c3ccccc3c[n+](C)c12.[Cl-] on Bacillus pumilus: 2

// assay Bacillus pumilus, entry C[n+]1cc2ccccc2c2cc(-c3ccc(OC(F)(F)F)cc3)ccc21.[Cl-] , MIC value = 8

// returns MIC for O=C(O)c1cn(C2CC2)c2cc(N3CCNCC3)c(F)cc2c1=O with Bacillus pumilus; value = 8

Sample COc1cc(-c2cccc(C(F)(F)F)c2)cc2c3ccccc3c[n+](C)c12.[Cl-] , system: Bacillus pumilus. Its MIC is 4

Lab note: molecule COc1cc(-c2ccccc2)cc2c3ccccc3c[n+](C)c12.[Cl-] tested on Bacillus pumilus; recorded MIC was 4

# MIC measured on Bacillus pumilus for item C[n+]1cc2ccccc2c2cc(-c3ccc(-c4ccccc4)cc3)ccc21.[Cl-] = 16

Measured on Bacillus pumilus, Cc1cc(-c2ccccc2C(F)(F)F)cc2c3ccccc3c[n+](C)c12.[Cl-] has a documented MIC of 2

Result for COc1ccc(-c2cc(C)c3c(c2)c2ccccc2c[n+]3C)cc1.[Cl-] , tested on Bacillus pumilus, MIC: 4

Lab note: molecule C[n+]1cc2ccccc2c2cc(-c3ccc(C(F)(F)F)cc3)ccc21.[Cl-] tested on Bacillus pumilus; recorded MIC was 8

GET /values?item= Cc1ccc(-c2cc(C)c3c(c2)c2ccccc2c[n+]3C)cc1.[Cl-] &system= Bacillus pumilus returns MIC: 2

Lab note: molecule COc1cc(-c2ccc(-c3ccccc3)cc2)cc2c3ccccc3c[n+](C)c12.[Cl-] tested on Bacillus pumilus; recorded MIC was 2

Form field MIC for item COc1cc(-c2ccc(OC(F)(F)F)cc2)cc2c3ccccc3c[n+](C)c12.[Cl-] on Bacillus pumilus: 2
